meta.source: ChEMBL document CHEMBL1143762

MEASUREMENT DESCRIPTION: Half life in mouse at 20 mg/kg, iv administered with 10 mg/kg cilastatin
Format: ADME, organism-based
APPLIED CONDITIONS: in vivo

# COMPOUND SMILES, READOUT UNITS, half-life
data = [
    ("CSc1c2sc(C3=C(C(=O)[O-])N4C(=O)[C@H]([C@@H](C)O)[C@H]4[C@H]3C)cn2c[n+]1C[C@H](O)CN", "min", 13.4),
]

====

MEASUREMENT DESCRIPTION: Volume of distribution at steady state in mouse at 20 mg/kg, iv administered with 10 mg/kg cilastatin
Format: ADME, organism-based
APPLIED CONDITIONS: in vivo, read-out: Vss
MEASUREMENT NAME: Vd (L/kg)

# COMPOUND SMILES, MEASUREMENT NAME, READOUT UNITS, DATA VALUE
measured = [
    ("CSc1c2sc(C3=C(C(=O)[O-])N4C(=O)[C@H]([C@@H](C)O)[C@H]4[C@H]3C)cn2c[n+]1C[C@H](O)CN", "Vd", "L/kg", 0.34),
]
